METHOD DESCRIPTION: growth inhibition of WT strain, primary screen, mitochondrial fusion inhibitor project, WT and mutant strains, chemical genetic (AID 1362)
ASSAY SETUP: mitochondrial fusion phenotypic screen, mutant strain inhibition; at 10 µM
The campaign covered roughly 190,000 compounds. About 4,000 (2.1%) were called active. The full list was thinned out, with actives kept by preference.
# Lookup of reported inhibition keyed by entry

Examples from the recorded data:
Cc1ccccc1C(=O)OC1OC(=O)C(Cl)=C1Nc1ccccc1 (stereo not given): 3.24%
FC(F)(F)c1cc(-c2ccco2)nc(NCc2ccc(Cl)cc2)n1: 17.2%
COc1ccc(CN2CN(C3CCCC3)CSC2=S)cc1: -26.6%
Cc1ccccc1NC(=O)NNC(=O)OC(C)(C)C: -7.53%

[Q] Which inhibition value is on record for "COc1ccccc1CSc1ncc(-c2ccc([N+](=O)[O-])cc2)[nH]1" ?
[A] 30.7%

----------
METHOD DESCRIPTION: growth inhibition of WT strain, primary screen, mitochondrial fusion inhibitor project, WT and mutant strains, chemical genetic (AID 1362)
ASSAY SETUP: mitochondrial fusion phenotypic screen, WT strain, growth inhibition; at 10 µM; stronger effect = higher value
About 4,000 (2.1%) of roughly 190,000 compounds were called active. The sample as a whole holds a higher share of actives than the screen did.
ASSAY ENDPOINT: inhibition (%)
Numeric only. Scale: %

Examples from the recorded data:
COc1cc(NC(=O)CN(C)S(=O)(=O)c2ccc3nc(C)sc3c2)cc(OC)c1: 5.19
CCC(=O)NC(=S)Nc1ccc(NC(=O)c2ccco2)c(Cl)c1: 8.3

[Q] Which inhibition value is on record for "O=c1cc(N2CCCCC2)c(-c2ccccc2)nn1Cc1cccc(F)c1" ?
[A] 87.9

[Q] Which inhibition value is on record for "CC(=O)c1cnc(-c2ccccc2)s1" ?
[A] 3.8

[Q] Which inhibition value is on record for O=C(CN(CC1CCCO1)C(=O)CNS(=O)(=O)c1ccc(F)cc1)NCc1ccco1 (stereo not given) ?
[A] -16.3

----------
METHOD DESCRIPTION: growth inhibition of WT strain, primary screen, mitochondrial fusion inhibitor project, WT and mutant strains, chemical genetic (AID 1362)
ASSAY SETUP: mitochondrial fusion phenotypic screen, WT strain, growth inhibition; at 10 µM; stronger effect = higher value
About 4,000 (2.1%) of roughly 190,000 compounds were called active. Shown is part of a subset that was picked to be rich in actives.
ASSAY ENDPOINT: inhibition (%)
Numeric only. Scale: %

Examples from the recorded data:
Cc1ccc(CN(Cc2cccnc2)C(=S)Nc2cc(Cl)ccc2C)cc1: 65.8
O=C1c2ccccc2NC(c2ccccc2O)N1NS(=O)(=O)c1ccccc1 (configuration not stated): -6.26
Cc1cccc(C)c1NC(=S)N(Cc1cccnc1)Cc1ccccc1Cl: -4.3

[Q] Which inhibition value is on record for "C=CCN(CC=C)CCOc1ccccc1[N+](=O)[O-]" ?
[A] 1.42

[Q] Which inhibition value is on record for CC(NC(=S)Nc1ccc(OC(F)F)cc1)c1ccc(F)cc1 (configuration not stated) ?
[A] 42.7

[Q] Which inhibition value is on record for O=C(NCc1ccccc1)C1CCCN(c2nc3ccsc3c(=O)s2)C1 (configuration not stated) ?
[A] -14.1

[Q] Which inhibition value is on record for "Cc1ccc(Cl)cc1NC(=S)N(CCN(C)C)Cc1cccs1" ?
[A] 3.98
